The entries below are paired with their reported IC50.
Assay: Inhibition of FTase

[
  {
    "compound smiles": "C=C/C(=C\\CC/C(C)=C/COP(=O)(O)OP(=O)(O)O)CC/C=C(\\C)CCC=C(C)C",
    "IC50": "> 5000 nM"
  },
  {
    "compound smiles": "C=CC/C(=C\\CC/C(C)=C/COP(=O)(O)OP(=O)(O)O)CC/C=C(\\C)CCC=C(C)C",
    "IC50": "> 5000 nM"
  },
  {
    "compound smiles": "C=CC/C(=C\\COP(=O)(O)OP(=O)(O)O)CC/C=C(\\C)CCC=C(C)C",
    "IC50": "189 nM"
  },
  {
    "compound smiles": "C=C/C(=C\\COP(=O)(O)OP(=O)(O)O)CC/C=C(\\C)CC/C=C(\\C)CCC=C(C)C",
    "IC50": "715 nM"
  }
]

We now examine a further molecule.
Inquiry: Given the molecule C=CC/C(=C\COP(=O)(O)OP(=O)(O)O)CC/C=C(\C)CC/C=C(\C)CCC=C(C)C , write its reported IC50.
Reply text: 453 nM

---

Assay: Inhibition of GGTase 1
attribute measured: pIC50
pIC50 here is simply -log10 of the concentration when that concentration is written in mol/L.

[
  {
    "compound smiles": "C=CC/C(=C\\COP(=O)(O)OP(=O)(O)O)CC/C=C(\\C)CC/C=C(\\C)CCC=C(C)C",
    "pIC50": 6.07
  }
]

Inquiry: Supply reported pIC50 belonging to this molecule: C=C/C(=C\CC/C(C)=C/COP(=O)(O)OP(=O)(O)O)CC/C=C(\C)CCC=C(C)C
Reply text: 6.00
